- METHOD SUMMARY: Oral bioavailability in dog at 1 mg/kg
- Assay type: ADME, organism-based, Canis lupus familiaris
- TEST SETTINGS: in vivo
OUTCOME MEASURE: bioavailability (%)
One number for each entry, in %.

Inquiry: // query bioavailability value for entry `CCOC(=O)N1CCC(CN2CCC3(CC2)CN(C(=O)N(C)C)c2ncccc23)CC1.O=C(O)/C=C/C(=O)O`
Reply text: 49.3

----------
Answer each item with its documented Activity.
- TESTED SYSTEM: Muscarinic acetylcholine receptor M2 (Homo sapiens)
- Sequence (whole entry): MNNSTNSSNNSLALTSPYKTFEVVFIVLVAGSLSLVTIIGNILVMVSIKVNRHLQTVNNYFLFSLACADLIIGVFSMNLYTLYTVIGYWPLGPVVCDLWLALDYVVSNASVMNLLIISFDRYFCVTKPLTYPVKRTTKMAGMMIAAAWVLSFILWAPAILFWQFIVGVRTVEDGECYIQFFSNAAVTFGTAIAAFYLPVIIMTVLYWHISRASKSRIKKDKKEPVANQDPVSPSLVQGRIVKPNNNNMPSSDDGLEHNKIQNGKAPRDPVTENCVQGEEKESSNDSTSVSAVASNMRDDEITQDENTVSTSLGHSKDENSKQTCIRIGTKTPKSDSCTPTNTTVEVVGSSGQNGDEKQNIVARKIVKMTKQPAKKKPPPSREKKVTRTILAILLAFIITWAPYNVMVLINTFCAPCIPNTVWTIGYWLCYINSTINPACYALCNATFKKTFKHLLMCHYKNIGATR
- METHOD SUMMARY: Agonist activity at muscarinic M2 receptor (unknown origin) at 1 uM by calcium mobilization assay
- Type: functional
Give bare numbers, in %.

# example entries with known answers
{"SAMPLE SMILES": "CCNC(=O)N1CC2(CCN(CC3CCN(C(=O)OCC)CC3)CC2)c2cccnc21", "QUANTITY UNIT": "%", "Activity": 13}
{"SAMPLE SMILES": "CCOC(=O)N1CCC(CN2CCC3(CC2)CN(CC)c2ncccc23)CC1", "QUANTITY UNIT": "%", "Activity": 14}
{"SAMPLE SMILES": "CCOC(=O)N1CCC(CN2CCC3(CC2)CC(=O)N(CC)c2ncccc23)CC1", "QUANTITY UNIT": "%", "Activity": 20}

Proceeding to the next molecule to report its Activity.
Inquiry: // query Activity value for entry `CCOC(=O)N1CCC(CN2CCC3(CC2)CN(C(=O)N(CC)CC)c2ncccc23)CC1`
Reply text: 23

----------
- TESTED SYSTEM: L-type calcium channel, benzothiazepine binding site (Rattus norvegicus, UniProt P22002+P27732+Q02485)
- METHOD SUMMARY: Inhibition of rat L-type calcium channel benzothiazepine binding site at 3 uM by radioligand binding assay
- Type: protein assay
OUTCOME MEASURE: inhibition at 3 µM
Report field: quantity (unit follows the number).

Inquiry: // query inhibition at 3 µM value for entry `CCOC(=O)N1CCC(CN2CCC3(CC2)CN(C(=O)N(C)C)c2ncccc23)CC1.O=C(O)/C=C/C(=O)O`
Reply text: -21%

----------
- TESTED SYSTEM: Muscarinic acetylcholine receptor M3 (Homo sapiens)
- METHOD SUMMARY: Agonist activity at muscarinic M3 receptor (unknown origin) at 1 uM by calcium mobilization assay
- Assay type: functional
Answer each item with its documented Activity.
One number for each entry, in %.

{"SAMPLE SMILES": "CCOC(=O)N1CCC(CN2CCC3(CC2)CN(CC)c2ncccc23)CC1", "OUTCOME MEASURE": "Activity", "QUANTITY UNIT": "%", "REPORTED": 6}
{"SAMPLE SMILES": "CCNC(=O)N1CC2(CCN(CC3CCN(C(=O)OCC)CC3)CC2)c2cccnc21", "OUTCOME MEASURE": "Activity", "QUANTITY UNIT": "%", "REPORTED": 5}
{"SAMPLE SMILES": "CCOC(=O)N1CCC(CN2CCC3(CC2)CC(=O)N(CC)c2ncccc23)CC1", "OUTCOME MEASURE": "Activity", "QUANTITY UNIT": "%", "REPORTED": 2}

Proceeding to the next molecule to report its Activity.
Inquiry: What measured Activity is associated with `CCOC(=O)N1CCC(CN2CCC3(CC2)CN(C(=O)N(CC)CC)c2ncccc23)CC1` on Muscarinic acetylcholine receptor M3 (Homo sapiens)?
Reply text: 4

----------
- METHOD SUMMARY: Blood brain barrier penetration in rat at 0.25 mg/kg, iv and 2.5 mg/kg, po
- Format: ADME, organism-based
OUTCOME MEASURE: Kp
Answers are plain numbers.

Inquiry: // query Kp value for entry `CCOC(=O)N1CCC(CN2CCC3(CC2)CN(C(=O)N(C)C)c2ncccc23)CC1.O=C(O)/C=C/C(=O)O`
Reply text: 0.7

----------
- TESTED SYSTEM: Muscarinic acetylcholine receptor M1 (Homo sapiens)
- Sequence (P11229 whole entry): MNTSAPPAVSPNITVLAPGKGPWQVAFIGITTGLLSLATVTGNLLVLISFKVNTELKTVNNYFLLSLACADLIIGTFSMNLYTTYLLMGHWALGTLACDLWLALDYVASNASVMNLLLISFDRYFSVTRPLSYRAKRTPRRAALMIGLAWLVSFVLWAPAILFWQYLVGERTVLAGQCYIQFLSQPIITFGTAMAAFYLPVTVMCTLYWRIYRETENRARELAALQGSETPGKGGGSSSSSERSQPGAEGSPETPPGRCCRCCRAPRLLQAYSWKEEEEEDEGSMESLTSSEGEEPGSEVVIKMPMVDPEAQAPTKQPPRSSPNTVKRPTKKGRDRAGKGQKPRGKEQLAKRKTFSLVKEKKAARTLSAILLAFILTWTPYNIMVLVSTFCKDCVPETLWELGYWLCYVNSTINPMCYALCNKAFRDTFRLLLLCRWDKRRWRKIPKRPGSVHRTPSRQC
- METHOD SUMMARY: Agonist activity at muscarinic M1 receptor (unknown origin) by calcium mobilization assay
OUTCOME MEASURE: EC50 (nM)
Answers are plain numbers, in nM.

Inquiry: // query EC50 value for entry `CCOC(=O)N1CCC(CN2CCC3(CC2)CN(C(=O)N(C)C)c2ncccc23)CC1.O=C(O)/C=C/C(=O)O`
Reply text: 133

----------
- METHOD SUMMARY: Volume of distribution at steady state in monkey at 0.25 mg/kg, iv and 2.5 mg/kg, po
- Type: ADME, organism-based, Macaca mulatta
- TEST SETTINGS: rhesus monkey, in vivo, read-out: Vdss
OUTCOME MEASURE: Vd (L/kg)
Answers are plain numbers, in L/kg.

Inquiry: // query Vd value for entry `CCOC(=O)N1CCC(CN2CCC3(CC2)CN(C(=O)N(C)C)c2ncccc23)CC1.O=C(O)/C=C/C(=O)O`
Reply text: 2.3

----------
- TESTED SYSTEM: Muscarinic acetylcholine receptor M5 (Homo sapiens) (UniProt P08912)
- Sequence (P08912 whole entry): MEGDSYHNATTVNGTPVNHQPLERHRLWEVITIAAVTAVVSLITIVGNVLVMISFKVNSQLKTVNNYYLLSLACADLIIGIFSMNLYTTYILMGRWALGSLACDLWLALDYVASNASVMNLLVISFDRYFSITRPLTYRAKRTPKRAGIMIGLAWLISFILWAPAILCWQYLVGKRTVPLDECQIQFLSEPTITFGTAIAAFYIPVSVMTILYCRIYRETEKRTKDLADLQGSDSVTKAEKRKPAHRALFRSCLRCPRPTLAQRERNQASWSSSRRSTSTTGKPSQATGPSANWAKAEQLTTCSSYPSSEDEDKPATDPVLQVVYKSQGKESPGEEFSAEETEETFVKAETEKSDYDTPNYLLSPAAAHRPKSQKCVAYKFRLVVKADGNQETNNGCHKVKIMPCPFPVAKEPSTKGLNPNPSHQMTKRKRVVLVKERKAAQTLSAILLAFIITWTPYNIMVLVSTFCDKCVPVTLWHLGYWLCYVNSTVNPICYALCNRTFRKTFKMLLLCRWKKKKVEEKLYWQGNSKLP
- METHOD SUMMARY: Agonist activity at muscarinic M5 receptor (unknown origin) at 10 uM by calcium mobilization assay
- Type: functional
Answer each item with its documented Activity.
Give bare numbers, in %.

{"SAMPLE SMILES": "CCOC(=O)N1CCC(CN2CCC3(CC2)CN(CC)c2ncccc23)CC1", "Activity (%)": 17}

Go through the items and report each one's Activity.
1. CCOC(=O)N1CCC(CN2CCC3(CC2)CC(=O)N(CC)c2ncccc23)CC1
2. CCOC(=O)N1CCC(CN2CCC3(CC2)CN(C(=O)N(CC)CC)c2ncccc23)CC1
3. CCOC(=O)N1CCC(CN2CCC3(CC2)CN(C(=O)NC)c2ncccc23)CC1
4. CCNC(=O)N1CC2(CCN(CC3CCN(C(=O)OCC)CC3)CC2)c2cccnc21

Reply text:
1. 3
2. 9
3. 17
4. 11

----------
- TESTED SYSTEM: L-type calcium channel, dihydropyridine binding site (Rattus norvegicus, UniProt P22002+P27732+Q02485)
- METHOD SUMMARY: Inhibition of rat L-type calcium channel dihydropyridine binding site at 3 uM by radioligand binding assay
- Type: protein assay
OUTCOME MEASURE: inhibition at 3 µM (%)
Numbers only, in %.

Inquiry: // query inhibition at 3 µM value for entry `CCOC(=O)N1CCC(CN2CCC3(CC2)CN(C(=O)N(C)C)c2ncccc23)CC1.O=C(O)/C=C/C(=O)O`
Reply text: 11
